Numbers sourced from patent US20140135310A1.

Biological target: dopaminergic receptors D3 (Homo sapiens, UniProt P35462)
Sequence (P35462 whole entry): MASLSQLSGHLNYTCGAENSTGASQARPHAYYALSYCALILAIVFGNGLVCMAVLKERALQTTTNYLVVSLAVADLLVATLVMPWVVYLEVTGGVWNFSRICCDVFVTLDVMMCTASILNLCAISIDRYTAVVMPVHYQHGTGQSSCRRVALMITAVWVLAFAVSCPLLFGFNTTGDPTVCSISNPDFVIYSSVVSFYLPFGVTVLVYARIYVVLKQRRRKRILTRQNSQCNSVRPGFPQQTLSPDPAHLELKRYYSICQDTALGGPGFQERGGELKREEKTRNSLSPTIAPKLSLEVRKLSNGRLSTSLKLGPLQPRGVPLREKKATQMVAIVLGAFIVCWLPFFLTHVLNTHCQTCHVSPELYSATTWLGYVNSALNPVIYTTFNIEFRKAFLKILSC
Experiment: Radioligand binding assay, dopaminergic D3 receptors
Settings: test compound 1×10^−6 M
value kind: inhibition at 1 µM (%)
// return numeric value only (unit: %, not printed)

compound: Cc1ccc2sc(S(=O)(=O)N[C@@H]3CCN(CCCc4noc5cc(F)ccc45)C3)cc2c1
measured value: 97

Asked: Please look at this compound and report its inhibition at 1 µM: Cn1ccc2c(S(=O)(=O)NCC3CN(CCOc4cccc5c4OCCO5)C3)cccc21
Given back: 51

====

Biological target: D3 dopaminergic receptors (Homo sapiens, UniProt P35462)
Sequence (P35462 whole entry): as above
Test: Cellular functional assay, D3 dopaminergic receptors
Type: cell-based
Conditions: antagonism, D3 (h), CHO cells, stimulus dopamine (10 nM)
Description: The results are expressed as a percent of control specific agonist response ((measured specific response/control specific agonist response)×100) obtained in the presence of the test compounds. […] For the antagonists, the apparent dissociation constants (Kb) were calculated using the modified Cheng Prusoff equation (Kb=IC50/(1+(A/EC50A)), where A=concentration of reference agonist in the assay, and EC50A=EC50 value of the reference agonist).
Below, each entry is listed alongside its reported D3 antag [%].
// return numeric value only (unit: %, not printed)

In the examples that follow, each entry is paired with its recorded D3 antag [%].
molecule: O=S(=O)(NC1CN(CCOc2cccc3[nH]ccc23)C1)c1cccc2ccccc12
D3 antag [%] (%): 12

molecule: Cc1c(S(=O)(=O)N[C@H]2CCN(CCCc3noc4cc(F)ccc34)C2)sc2ccc(Cl)cc12
D3 antag [%] (%): 95

molecule: O=S(=O)(NC1CCN(CCCc2c[nH]c3ccc(F)cc23)C1)c1ccc2ccccc2c1 (centres unmarked)
D3 antag [%] (%): −5

molecule: O=S(=O)(NCC1CN(CCOc2cccc3ccccc23)C1)c1ccc2ccccc2c1
D3 antag [%] (%): 56

Moving on to the next molecule.
Asked: Please look at this molecule and report its D3 antag [%]: Cc1ccc2sc(S(=O)(=O)N[C@@H]3CCN(CCCc4noc5cc(F)ccc45)C3)cc2c1
Given back: 98

====

Test system: α1 adrenergic receptors (rat cerebral cortex)
Experiment: Radioligand binding assay, adrenergic α1 receptors
Details: test compound 1×10^−6 M
Below, each entry is listed alongside its reported α1 [%].
Don't forget the unit after the value.

Asked: Please look at this compound and report its α1 [%]: Cc1ccc2sc(S(=O)(=O)NC3CCN(CCCc4noc5cc(F)ccc45)C3)cc2c1 (stereo not shown) [Compound 226]
Given back: 73%

====

Biological target: serotonin transporter (SERT) (Homo sapiens)
Construct: expressed in transfected cells; host or cells: CHO cells
Assay: Radioligand binding assay, serotonin transporter (SERT)
Conditions: binding assay, test compound 1×10^−6 M
value kind: inhibition at 1 µM
Don't forget the unit after the value.

compound: O=S(=O)(NCC1CCN(CCOc2cccc3ccccc23)C1)c1cc2ccccc2s1 (centres unmarked)
inhibition at 1 µM: 85%
--
compound: O=S(=O)(NCC1CCN(CCOc2cccc3ccccc23)C1)c1cccc2ccccc12 (centres unmarked)
inhibition at 1 µM: 64%
--
compound: O=S(=O)(N[C@H]1CCN(CCCc2noc3cc(F)ccc23)C1)c1csc2ccccc12
inhibition at 1 µM: 77%
--
compound: Cc1c(S(=O)(=O)NCC2CN(CCCc3noc4cc(F)ccc34)C2)sc2ccc(Cl)cc12
inhibition at 1 µM: 55%
--
compound: O=C1Cc2cc(S(=O)(=O)NCC3CN(CCOc4cccc5c4OCCO5)C3)ccc2N1
inhibition at 1 µM: 41%
--
compound: O=S(=O)(NCC1CN(CCCc2noc3cc(F)ccc23)C1)c1ccc(-c2ccccc2)cc1
inhibition at 1 µM: 68%

Asked: Please look at this compound and report its inhibition at 1 µM: Cc1c(S(=O)(=O)NC2CCN(CCCc3noc4cc(F)ccc34)CC2)sc2ccc(Cl)cc12
Given back: 10%

Asked: Please look at this compound and report its inhibition at 1 µM: O=S(=O)(NCC1CCN(CCOc2cccc3ccccc23)C1)c1cc2ccc(Cl)cc2s1 (centres unmarked)
Given back: 53%

====

Biological target: serotonin transporter (SERT) (Homo sapiens, UniProt P31645)
Construct: expressed in transfected cells; host or cells: CHO cells
Sequence (P31645 whole entry): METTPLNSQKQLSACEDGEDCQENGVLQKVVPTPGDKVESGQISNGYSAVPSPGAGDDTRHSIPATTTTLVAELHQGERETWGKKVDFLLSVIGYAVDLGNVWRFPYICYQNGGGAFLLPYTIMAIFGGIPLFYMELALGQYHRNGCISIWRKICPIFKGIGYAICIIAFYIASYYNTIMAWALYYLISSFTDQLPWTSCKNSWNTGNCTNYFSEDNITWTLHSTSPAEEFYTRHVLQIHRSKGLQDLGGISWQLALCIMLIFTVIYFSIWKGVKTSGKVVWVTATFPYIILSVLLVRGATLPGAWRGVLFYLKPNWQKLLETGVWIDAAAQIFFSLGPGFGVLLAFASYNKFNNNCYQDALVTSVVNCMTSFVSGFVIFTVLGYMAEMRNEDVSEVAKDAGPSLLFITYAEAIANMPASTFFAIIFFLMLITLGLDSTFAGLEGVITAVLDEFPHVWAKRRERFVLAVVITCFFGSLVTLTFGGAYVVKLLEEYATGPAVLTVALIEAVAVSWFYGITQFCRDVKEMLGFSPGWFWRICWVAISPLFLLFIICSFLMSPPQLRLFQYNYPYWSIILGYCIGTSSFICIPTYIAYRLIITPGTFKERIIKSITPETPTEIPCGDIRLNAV
Experiment: Radioligand binding assay, serotonin transporter (SERT)
Settings: binding assay, test compound 1×10^−6 M
value kind: inhibition at 1 µM

compound: O=S(=O)(NCC1CCN(CCCc2noc3cc(F)ccc23)C1)c1ccc2cc(Cl)ccc2c1 (centres unmarked) [Compound 237]
inhibition at 1 µM: 61%
--
compound: O=S(=O)(NC1CCN(CCCc2c[nH]c3ccc(F)cc23)C1)c1ccc(Cl)cc1 (centres unmarked) [Compound 77]
inhibition at 1 µM: 104%
--
compound: O=S(=O)(NCC1CCN(CCOc2cccc3c2OCCO3)C1)c1ccc(C(F)(F)F)cc1 (centres unmarked) [Compound 293]
inhibition at 1 µM: 82%
--
compound: O=S(=O)(NCC1CN(CCCc2noc3cc(F)ccc23)C1)c1ccc2ccccc2c1 [Compound 134]
inhibition at 1 µM: 47%
--
compound: Cc1cccc(S(=O)(=O)NC2CCN(CCCc3c[nH]c4ccc(F)cc34)C2)c1 (centres unmarked) [Compound 78]
inhibition at 1 µM: 101%

Asked: Please look at this compound and report its inhibition at 1 µM: O=S(=O)(NCC1CCN(CCCc2noc3cc(F)ccc23)C1)c1cccc(Cl)c1 (centres unmarked) [Compound 243]
Given back: 7%

Asked: Please look at this compound and report its inhibition at 1 µM: O=S(=O)(NCC1CN(CCOc2cccc3c2OCCO3)C1)c1ccc(Cl)cc1 [Compound 179]
Given back: -8%

Asked: Please look at this compound and report its inhibition at 1 µM: O=S(=O)(NCC1CN(CCCc2noc3cc(F)ccc23)C1)c1cccc(Cl)c1 [Compound 137]
Given back: -5%

====

Below, each entry is listed alongside its reported 5-HT2A ag [%].
Molecular target: 5-HT2A serotoninergic receptors (Homo sapiens, UniProt P28223)
Sequence (P28223 whole entry): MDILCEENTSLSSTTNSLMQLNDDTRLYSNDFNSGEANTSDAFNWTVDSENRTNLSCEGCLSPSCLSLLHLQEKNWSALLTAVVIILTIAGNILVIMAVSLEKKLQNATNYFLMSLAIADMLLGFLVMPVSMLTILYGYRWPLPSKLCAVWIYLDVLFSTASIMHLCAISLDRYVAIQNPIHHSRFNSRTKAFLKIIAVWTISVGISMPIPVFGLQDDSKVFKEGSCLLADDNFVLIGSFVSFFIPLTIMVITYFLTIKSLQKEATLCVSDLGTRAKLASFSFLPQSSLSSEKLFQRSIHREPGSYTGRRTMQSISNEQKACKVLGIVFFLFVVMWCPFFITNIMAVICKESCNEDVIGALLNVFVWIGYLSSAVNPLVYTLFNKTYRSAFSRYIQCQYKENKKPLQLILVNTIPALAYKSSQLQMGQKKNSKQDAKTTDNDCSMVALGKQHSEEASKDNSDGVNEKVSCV
Experiment: Cellular functional assay, 5-HT2A serotoninergic receptors
Format: cell-based
Details: agonist mode; percent of control specific agonist response
Procedure: The results are expressed as a percent of control specific agonist response ((measured specific response/control specific agonist response)×100) obtained in the presence of the test compounds. […] For the antagonists, the apparent dissociation constants (Kb) were calculated using the modified Cheng Prusoff equation (Kb=IC50/(1+(A/EC50A)), where A=concentration of reference agonist in the assay, and EC50A=EC50 value of the reference agonist).
// return numeric value only (unit: %, not printed)

In the examples that follow, each entry is paired with its recorded 5-HT2A ag [%].
molecule: O=S(=O)(NC1CCN(CCCc2noc3cc(F)ccc23)C1)c1cc2ccccc2o1 (stereo not drawn)
5-HT2A ag [%], %: −2
//
molecule: O=S(=O)(NC1CCN(CCOc2cccc3[nH]ccc23)CC1)c1ccccc1
5-HT2A ag [%], %: −1
//
molecule: O=S(=O)(N[C@@H]1CCN(CCCc2noc3cc(F)ccc23)C1)c1cc2ccc(Cl)cc2s1
5-HT2A ag [%], %: −3
//
molecule: O=S(=O)(NC1CCN(CCCc2noc3cc(F)ccc23)C1)c1ccc2cc(Cl)ccc2c1 (stereo not drawn)
5-HT2A ag [%], %: −2

Asked: Please look at this molecule and report its 5-HT2A ag [%]: O=S(=O)(N[C@H]1CCN(CCCc2noc3cc(F)ccc23)C1)c1cc2ccc(Cl)cc2s1
Given back: −2

Asked: Please look at this molecule and report its 5-HT2A ag [%]: O=S(=O)(N[C@H]1CCN(CCCc2noc3cc(F)ccc23)C1)c1cc2ccccc2o1
Given back: −2

Asked: Please look at this molecule and report its 5-HT2A ag [%]: O=S(=O)(N[C@H]1CCN(CCCc2noc3cc(F)ccc23)C1)c1csc2ccccc12
Given back: −1

Asked: Please look at this molecule and report its 5-HT2A ag [%]: Cc1c(S(=O)(=O)NC2CCN(CCCc3noc4cc(F)ccc34)C2)sc2ccc(F)cc12 (stereo not drawn)
Given back: −2

Asked: Please look at this molecule and report its 5-HT2A ag [%]: COc1ccc2cc(S(=O)(=O)N[C@@H]3CCN(CCCc4noc5cc(F)ccc45)C3)ccc2c1
Given back: −2

Asked: Please look at this molecule and report its 5-HT2A ag [%]: O=S(=O)(N[C@@H]1CCN(CCCc2noc3cc(F)ccc23)C1)c1cc2ccccc2o1
Given back: −2

====

Biological target: 5-HT7 receptor (Homo sapiens)
Construct: purchased PerkinElmer
Sequence (P34969 whole entry): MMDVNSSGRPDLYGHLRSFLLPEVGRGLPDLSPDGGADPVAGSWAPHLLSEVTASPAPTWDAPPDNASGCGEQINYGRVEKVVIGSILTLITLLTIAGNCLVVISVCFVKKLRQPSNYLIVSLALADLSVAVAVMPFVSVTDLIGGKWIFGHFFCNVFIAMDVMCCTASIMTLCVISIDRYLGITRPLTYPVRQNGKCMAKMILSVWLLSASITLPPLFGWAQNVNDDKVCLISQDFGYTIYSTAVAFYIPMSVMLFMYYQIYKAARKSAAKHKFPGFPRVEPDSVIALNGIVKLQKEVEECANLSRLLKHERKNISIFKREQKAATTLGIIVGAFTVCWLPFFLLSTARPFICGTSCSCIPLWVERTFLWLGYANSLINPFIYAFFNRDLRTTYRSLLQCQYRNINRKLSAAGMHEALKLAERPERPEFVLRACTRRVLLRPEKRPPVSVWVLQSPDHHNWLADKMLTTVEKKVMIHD
Assay: Radioligand binding assay, serotoninergic 5-HT7 receptors;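 further: test compound at 1 µM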
Conditions: binding assay result in %, Table 5a
Below, each entry is listed alongside its reported inhibition at 1 µM.
// return numeric value only (unit: %, not printed)

In the examples that follow, each entry is paired with its recorded inhibition at 1 µM.
molecule: O=S(=O)(NCC1CN(CCCc2noc3cc(F)ccc23)C1)c1ccc2ccccc2c1
measured on: 5-HT7 receptor (Homo sapiens)
quantity unit: %
inhibition at 1 µM: 95

molecule: O=S(=O)(NCC1CCN(CCOc2cccc3c2OCCO3)C1)c1ccc2scnc2c1 (centres unmarked)
measured on: 5-HT7 receptor (Homo sapiens)
quantity unit: %
inhibition at 1 µM: 86

molecule: Cn1ccc2cc(S(=O)(=O)NCC3CCN(CCOc4cccc5ccccc45)C3)ccc21 (centres unmarked)
measured on: 5-HT7 receptor (Homo sapiens)
quantity unit: %
inhibition at 1 µM: 86

molecule: O=S(=O)(NCC1CN(CCOc2cccc3c2OCCO3)C1)c1ccc(Cl)cc1
measured on: 5-HT7 receptor (Homo sapiens)
quantity unit: %
inhibition at 1 µM: 90

molecule: O=S(=O)(NC1CCN(CCCc2c[nH]c3ccc(Cl)cc23)C1)c1cccc(Cl)c1 (centres unmarked)
measured on: 5-HT7 receptor (Homo sapiens)
quantity unit: %
inhibition at 1 µM: 98

molecule: O=S(=O)(NCC1CCN(CCCc2noc3cc(F)ccc23)C1)c1ccc(Cl)c(Cl)c1 (centres unmarked)
measured on: 5-HT7 receptor (Homo sapiens)
quantity unit: %
inhibition at 1 µM: 97

Asked: Please look at this molecule and report its inhibition at 1 µM: Cc1c(S(=O)(=O)NCC2CCN(CCOc3cccc4ccccc34)C2)sc2ccc(Cl)cc12 (centres unmarked)
Given back: 88

Asked: Please look at this molecule and report its inhibition at 1 µM: O=S(=O)(NC1CCN(CCCc2noc3cc(F)ccc23)C1)c1cccc(Cl)c1 (centres unmarked)
Given back: 90
